Measured values drawn from PubChem BioAssay for this set.

Assay: blockers of RIG-like receptor reporter activation – cell-based, Sendai virus stimulus, luciferase, 10K MLSCN set, TLR/RLR signaling modifier project, primary screen (AID 602276);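 further: firefly luciferase from ISG56 promoter only with Renilla not read in this screen; 0% = Sendai virus plus DMSO and 100% = medium plus DMSO without virus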
Settings: HEK293 RL24 IRF3 luciferase reporter, at 10 µM, hits give high values
experimental endpoint: inhibition (%)
Dear colleague, please return just the value in %, with no unit written.

// known answers, use as guide
- compound: "Cc1ccnc(NS(=O)(=O)c2ccc(N=CC3=C(O)CC(C)(C)CC3=O)cc2)n1"
  assay value: 7.45
- compound: "Cc1cccc(N2CCN(C(=O)c3cc4c(=O)[nH]c5ccccc5c4n3C)CC2)c1C"
  assay value: 9.93
- compound: "CC1=CC=CC2=NC(=O)CC(C)(C(=O)N(CC(=O)NC(C)C)C3CCCC3)N12 (stereo not given)"
  assay value: 4.96
- compound: "Cc1ccc2nc(SC(C)C(=O)N3CCCC3)[nH]c2c1 (stereo not given)"
  assay value: -21.2

Query block: Given the entry Cc1ccc(-c2noc(C3CCCN(C(=O)c4ccc(F)cc4F)C3)n2)cc1 (stereo not given) , report its measured inhibition.
Result block: -9.91

Query block: Given the entry O=C(COC(=O)C1(c2ccccc2F)CCCC1)NC1CCS(=O)(=O)C1 (stereo not given) , report its measured inhibition.
Result block: -1.97

Query block: Given the entry `COc1cc(C(=O)N2CCC(c3nc(-c4cccnc4)no3)CC2)cc(OC)c1OC` , report its measured inhibition.
Result block: 5.18

====

Molecular target: Voltage-gated potassium channel subunit beta-2 (Rattus norvegicus) (UniProt P62483)
Sequence (P62483 whole entry, looked up): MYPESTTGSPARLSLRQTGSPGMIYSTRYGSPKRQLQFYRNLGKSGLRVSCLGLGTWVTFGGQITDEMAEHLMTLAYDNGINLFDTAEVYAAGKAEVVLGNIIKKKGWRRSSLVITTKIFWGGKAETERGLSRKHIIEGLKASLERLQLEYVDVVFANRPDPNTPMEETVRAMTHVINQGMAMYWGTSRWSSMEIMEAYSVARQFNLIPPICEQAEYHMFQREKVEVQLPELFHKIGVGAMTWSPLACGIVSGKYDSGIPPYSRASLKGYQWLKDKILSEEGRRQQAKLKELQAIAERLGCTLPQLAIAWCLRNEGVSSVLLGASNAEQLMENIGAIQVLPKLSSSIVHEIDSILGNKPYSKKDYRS
Experiment: enhancers of rat Kvbeta2 NADPH turnover – biochemical, NADPH fluorescence, primary screen (AID 623);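 further: fluorescence intensity change per second fitted from 20 to 320 s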
Conditions: Recombinant KvBeta, NADPH fluorescence decrease slope, 10 min; at 10 µM; hits give low values
Measured NADPH fluorescence slope, listed per entry for reference.
// return a plain number; no unit text

- compound: "COCCOc1nc2ccccc2nc1C"
  assay value: "-2.4e-05"
- compound: "Cc1ccccc1CS(=O)(=O)Cc1ccc(C(=O)NCCCN2CCOCC2)o1"
  assay value: "-2.7e-05"
- compound: "CS(=O)(=O)N(CC(=O)N1CCCCCC1)c1ccccc1"
  assay value: "-3.4e-05"

Query block: Given the entry `O=C(NCc1ccccc1)N1CCn2c(nc3ccccc32)C1` , report its measured NADPH fluorescence slope.
Result block: -2.6e-05

Query block: Given the entry `COc1cc(OC)cc(-c2nnc(Nc3nc4c(F)cccc4s3)o2)c1` , report its measured NADPH fluorescence slope.
Result block: 7e-05

Query block: Given the entry `CCOC(=O)c1cc(CC)sc1NC(=O)C1CC1` , report its measured NADPH fluorescence slope.
Result block: -6.8e-05

Query block: Given the entry CCn1ncc(C2=NOC(C(=O)NCc3ccc(Cl)cc3)C2)c1C (stereo not given) , report its measured NADPH fluorescence slope.
Result block: 2.6e-05

Query block: Given the entry `Nc1nc(-c2ccccc2Br)cs1` , report its measured NADPH fluorescence slope.
Result block: -1.6e-05

Query block: Given the entry `COc1ccc(CNc2nc3nc(C)cc(C)n3n2)cc1OC` , report its measured NADPH fluorescence slope.
Result block: -0.000434

Query block: Given the entry `O=C(NCc1n[nH]c(=S)n1-c1ccc(F)cc1)c1ccco1` , report its measured NADPH fluorescence slope.
Result block: -2.7e-05

Query block: Given the entry `Cc1n[nH]c(C)c1S(=O)(=O)Nc1ccc2c(c1)OCCO2` , report its measured NADPH fluorescence slope.
Result block: 4.4e-05

Query block: Given the entry `COc1nc(N2CCOCC2)nc(-n2cccc2)n1` , report its measured NADPH fluorescence slope.
Result block: -7.1e-05
